- TEST PROTOCOL: qHTS RealTime-Glo MT Cell Viability Assay in HEK293 cells - 40 hour (AID 1224874); also: potency is read from the fitted curve at half-maximal effect; nearly all actives have a fitted effect of over 50% in size
- STUDY CONDITIONS: RealTime-Glo luminescence
Results filed as inconclusive are left out. Activity calls are given as the source filed them. Calls follow the shape of the dose curve; as a rule, active = well fitted cell-killing curve with a large enough effect in the repeat runs; inconclusive = weak or mixed curves, or effect the other way; inactive = flat fitted curve, though single readings scatter.
For each record, write down the corresponding Potency.

# Potency (compound: "O=[N+]([O-])c1cc(C2CCCCC2)c(O)c([N+](=O)[O-])c1" ) is 12.3 µM (active)

Lab book: Potency of "CCOc1ccc(Cc2nccc3cc(OCC)c(OCC)cc23)cc1OCC" noted as 5.35 µM (active)

The reported Potency of the compound CC(C)COCC(CN(Cc1ccccc1)c1ccccc1)N1CCCC1 (stereo not drawn) was 10.7 µM (active)

response.value for "Cc1ccc2c(Br)cc(Br)c(O)c2n1" (field: Potency) = 5.35 µM (active)

Field Potency (entry "CC(C)c1nc(CN(C)C(=O)N[C@H](C(=O)N[C@@H](Cc2ccccc2)C[C@H](O)[C@H](Cc2ccccc2)NC(=O)OCc2cncs2)C(C)C)cs1" ) reads 21.3 µM (active)

The compound listed as "Oc1cccc(Nc2ccccc2)c1" shows Potency equal to 12.8 µM (active)

// Potency lookup, compound = c1cc(N(CC2CO2)CC2CO2)ccc1Cc1ccc(N(CC2CO2)CC2CO2)cc1 (stereo not drawn) , result: 24.5 µM (active)

The compound listed as "C[C@@H](CN(C)C)CN1c2ccccc2Sc2ccccc21" shows Potency equal to 23.9 µM (active)

Just so you know, measured Potency for "CC[C@]1(O)C[C@H]2CN(CCc3c([nH]c4ccccc34)[C@@](C(=O)OC)(c3cc4c(cc3OC)N(C=O)[C@H]3[C@@](O)(C(=O)OC)[C@H](OC(C)=O)[C@]5(CC)C=CCN6CC[C@]43[C@@H]65)C2)C1" came out at 0.0012 µM (active)

Lab note: measured Potency of CN1CCCC(n2nc(Cc3ccc(Cl)cc3)c3ccccc3c2=O)CC1 (stereo not drawn) was 9.52 µM (active)

Quick note, Potency for O=C(OCC(O)CO)c1ccccc1Nc1ccnc2cc(Cl)ccc12 (stereo not drawn) landed at 8.49 µM (active)

Item: "Clc1ccc(Nc2nnc(Cc3ccncc3)c3ccccc23)cc1" | Potency: 19 µM (active)

Kindly note the recorded Potency for CN1CCCC(CC2c3ccccc3Sc3ccccc32)C1 (stereo not drawn) , which is 23.9 µM (active)

The recorded Potency for "CCCC(C(=O)OCCN(CC)CC)(c1ccccc1)c1ccccc1" is 21.3 µM (active)

# compound "CC(C)(C)CC(=O)OCC(=O)[C@@]1(O)CC[C@H]2[C@@H]3CCC4=CC(=O)C=C[C@]4(C)[C@H]3[C@@H](O)C[C@@]21C" ; its Potency = 19 µM (active)

// recorded Potency for "CN1C[C@H](C(=O)N[C@]2(C)O[C@@]3(O)[C@@H]4CCCN4C(=O)[C@H](Cc4ccccc4)N3C2=O)C[C@@H]2c3cccc4[nH]cc(c34)C[C@H]21" : 12 µM (active)

The reported value for CC1CC(C)C(=O)C1=O (stereo not drawn) in terms of Potency is 13.8 µM (active)

Field Potency (entry CN1C(=O)N(c2ccccc2Br)Cc2cnc(Nc3ccc4c(c3)OCC(CO)O4)nc21 (stereo not drawn) ) reads 4.36 µM (active)

Record "COc1cc(Nc2c(C#N)cnc3cc(OCCCN4CCN(C)CC4)c(OC)cc23)c(Cl)cc1Cl" . Reported Potency: 7.56 µM (active)

Looking up "CC(=O)Oc1ccc([N+](=O)[O-])cc1CCl" , I see its Potency listed as 3.47 µM (active)

Potency recorded for this compound, "C[C@]12CC[C@@H]3c4ccc(O)cc4CC[C@H]3[C@@H]1CC[C@@H]2OC(=O)CCC1CCCC1" , is 43.6 µM (active)

So, "C/C=C(/C(=C/C)c1ccc(O)cc1)c1ccc(O)cc1" ? Its Potency was 19 µM (active)

// Potency value for "OCCN1CCN(CCCN2c3ccccc3Sc3ccc(Cl)cc32)CC1" : 23.9 µM (active)

Potency recorded for this compound, "COC(=O)c1nc(Cl)c(Cl)nc1N" , is 4.77 µM (active)

The reported Potency of the compound "COc1ccccc1N1CCN(CCCCNC(=O)c2ccc(-c3ccc(C(C)=O)cc3)cc2)CC1" was 1.9 µM (active)

response.value for "Nc1ccc(N=Nc2ccccc2)c(N)c1" (field: Potency) = 38.1 µM (active)

Note to self: Potency recorded for "CCCCCCCCCCCCCCN(CCO)CCO" was 19.5 µM (active)

Briefly, Potency measured for "CN(C(=O)CN(CCO)CC(=O)N(C)C(C)(C)Cc1ccccc1)C(C)(C)Cc1ccccc1" : 19 µM (active)

====

- TEST PROTOCOL: A CellTox Green Cytotoxicity Assay to monitor cytotoxicity in HEK293 cells - 16 hour (AID 1224888); also: nearly all actives have a fitted effect of over 35% in size
- STUDY CONDITIONS: CellTox Green fluorescence; series mostly up to 76.8 µM
Records with an inconclusive call do not appear. Calls of active or inactive are those of the source. Calls come from the whole dose curve; as a rule, active = well fitted activation curve with a large enough effect in the repeat runs; inconclusive = weak or mixed curves; inactive = flat fitted curve, though single readings scatter.
Write down the outcome that applies. Available outcomes: Yes for active, No for inactive

**Q:** In this assay, the call recorded for "C1COC1" was what?
**A:** No

**Q:** // return assay outcome for "O=C(Nc1cccc2c(=O)cc(-c3nn[nH]n3)oc12)c1ccc(OCCCCc2ccccc2)cc1"
**A:** No

**Q:** Tell me the assay call for "CCC(=O)OC" please.
**A:** No

**Q:** What was the test verdict on "Cc1[nH]cnc1CN1CCc2c(c3ccccc3n2C)C1=O" ?
**A:** No

**Q:** # lookup: test call for C=CC(=O)OCC1CC2CC1C1CCC(COC(=O)C=C)C21 (stereo not drawn)
**A:** No

**Q:** Dear all, I need the recorded test outcome for "CN1C(=O)c2ccccc2C1=O" , thank you.
**A:** No

**Q:** What outcome does the record of this test show for "C/C=C\C/C=C/CCCCCCCCOC(C)=O" ?
**A:** No

**Q:** // return assay outcome for "CN(C)CCC=C1c2ccccc2C=Cc2ccccc21"
**A:** No

**Q:** Could you please tell me the result logged for "Cc1ccc(Cl)c(Nc2ccccc2C(=O)O)c1Cl" in this assay?
**A:** No

**Q:** Kindly provide the recorded test outcome for the following molecule: "Oc1ccc(Cl)c2cccnc12"
**A:** No

**Q:** GET /call?item= CC(C)C(O)(c1ccc(OC(F)(F)F)cc1)c1cncnc1 (stereo not drawn) returns the recorded outcome of this test.
**A:** No

**Q:** Field: outcome | Entry: "CC(C)=CCC/C(C)=C/CC/C(C)=C/CCC(=O)OC/C=C(\C)CCC=C(C)C"
**A:** No

**Q:** # fetch the recorded call for "CC(C)C=O" here
**A:** No

**Q:** Short answer needed: outcome of this test for "CC[C@]1(O)C[C@H]2CN(CCc3c([nH]c4ccccc34)[C@@](C(=O)OC)(c3cc4c(cc3OC)N(C=O)[C@H]3[C@@](O)(C(=O)OC)[C@H](OC(C)=O)[C@]5(CC)C=CCN6CC[C@]43[C@@H]65)C2)C1" ?
**A:** No

**Q:** Field: outcome | Entry: "O=[N+]([O-])c1cc(C2CCCCC2)c(O)c([N+](=O)[O-])c1"
**A:** No

**Q:** # outcome recorded in this test, key = "Brc1cc(Br)c(Oc2cc(Br)c(Br)cc2Br)cc1Br"
**A:** No

**Q:** Outcome logged for "CC(C)=CCC/C(C)=C/CC/C(C)=C/C(=O)OCC(=O)[C@@]1(O)CC[C@H]2[C@@H]3CCC4=CC(=O)C=C[C@]4(C)[C@H]3[C@@H](O)C[C@@]21C" in this assay:
**A:** No

**Q:** // outcome(item) with item = "COC(=O)C1=C(C)NC(C)=C(C(=O)O[C@@H]2CCCN(Cc3ccccc3)C2)[C@@H]1c1cccc([N+](=O)[O-])c1"
**A:** No

**Q:** Answer briefly: the call reported for CCC1CO1 (stereo not drawn) in this assay.
**A:** No

**Q:** Dear colleague, could you share the recorded outcome for "CCCC(=O)C(=O)O" when you have a moment?
**A:** No

**Q:** Status in this test for "Cc1cccc(N(C)C(=S)Oc2ccc3c(c2)CCC3)c1" ?
**A:** No

**Q:** Just curious, what result did "C=C/C(C)=C/C/C=C(\C)CCC=C(C)C" get here?
**A:** No

**Q:** Hi, do you know how "O=C(CCc1ccc(O)cc1)c1c(O)cc(O)cc1O" came out in this test?
**A:** No

**Q:** Please let me know the test result on file for "Clc1ccc(Nc2nnc(Cc3ccncc3)c3ccccc23)cc1" .
**A:** No

**Q:** # fetch the recorded call for "C=C(C)C(=O)OCCOCCOC(=O)C(=C)C" here
**A:** No

**Q:** Could you kindly confirm the outcome this assay logged for "O=[N+]([O-])c1ccc(Nc2ccc(Nc3ccccc3)c(S(=O)(=O)O)c2)c([N+](=O)[O-])c1" ?
**A:** No

**Q:** Write down the call the test reported for this molecule. Item: CCCCCC[C@@H](O)C/C=C\CCCCCCCC(=O)OCC(O)CO (stereo partly drawn)
**A:** No

**Q:** What was the test verdict on "OC1(c2ccccc2)CCNCC1" ?
**A:** No

**Q:** What outcome does the record of this test show for "CCC1(CO)COCOC1" ?
**A:** No

**Q:** Give the logged outcome of this assay for the following molecule: "N#CCCN(CCO)CCO"
**A:** No

**Q:** Hi team, can someone confirm the assay call for "C[C@@H]1CC(=O)NN=C1c1ccc(NN=C(C#N)C#N)cc1" ?
**A:** No

**Q:** Please let me know the test result on file for "O=c1cc(-c2ccccc2)oc2cc(O)cc(O)c12" .
**A:** No

**Q:** What was the test verdict on CCC(=O)C1CC(C(C)C)CC=C1C (stereo not drawn) ?
**A:** No

**Q:** Hi team, can someone confirm the assay call for CC(CCC(=O)O)C(=O)O (stereo not drawn) ?
**A:** No

**Q:** Outcome? "CCCCN(CCN(CCCC)C(=O)N1CCOCC1)C(=O)N1CCOCC1"
**A:** No

**Q:** Each molecule tested received a call. Report the one for "COC(=O)[C@H]1[C@H]2C[C@@H]3c4[nH]c5cc(OC)ccc5c4CCN3C[C@H]2C[C@@H](OC(=O)/C=C/c2ccc(O)c(OC)c2)[C@@H]1OC" .
**A:** Yes

**Q:** // param item: C=CC(C)(CCC=C(C)C)OC(=O)CC(C)C (stereo not drawn) ; yields the recorded call
**A:** No

**Q:** Per the records of this test, what outcome belongs to "CC(C)(O)c1ccc(CNC(=O)c2cccnc2Oc2ccc3nonc3c2)cc1" ?
**A:** No

**Q:** Status in this test for "Brc1cc2ccccc2c2ccccc12" ?
**A:** No

**Q:** # lookup: test call for "C[C@@H](O)[C@H]1C(=O)N2C(C(=O)O)=C([C@H]3CCCO3)S[C@H]12"
**A:** No

**Q:** Please state the recorded outcome for this molecule: "CCCCOc1ccc(OCCCN2CCOCC2)cc1"
**A:** No

**Q:** Dear colleague, could you share the recorded outcome for "CN1C(=O)OC(C)(C)C1=O" when you have a moment?
**A:** No

**Q:** For "O[C@@H]1CO[C@H]2[C@@H]1OC[C@@H]2O" , what call appears in the results of this test?
**A:** No

**Q:** Per the assay record, what outcome was assigned to "COC(=O)CCS" ?
**A:** No

**Q:** Status in this test for "O=C1c2ccccc2C(=O)C1c1nc2ccccc2c(Br)c1O" ?
**A:** No

**Q:** For "Nc1nnc(-c2ccc([N+](=O)[O-])o2)o1" , what call appears in the results of this test?
**A:** No

**Q:** Tell me the assay call for "COc1cc(C(=O)NCCCCCC(=O)O)cc(OC)c1OC" please.
**A:** No

**Q:** Would you mind telling me which call this test gave "CCOC(=O)[C@H](CCc1ccccc1)N[C@@H](C)C(=O)N(CC(=O)O)C1Cc2ccccc2C1" ?
**A:** No
